Reference for the values: ChEMBL document CHEMBL1938316

assay: Selectivity index, ratio of CC50 for human Ava5 cells to IC50 for HCV replication; format: functional
Each record is given Y if its reported Ratio CC50/EC50 is strictly below 2. Records at or above 2 are given N.

{"columns": ["Mol smiles", "Label class"],
 "data": [
  ["O=[N+]([O-])c1ccc(Nc2ccc3ccccc3n2)cc1", "N"],
  ["Clc1cc(Br)ccc1Nc1ccc2ccccc2n1", "Y"],
  ["Cc1ccc(Nc2ccc3ccccc3n2)c(C)c1", "Y"],
  ["COc1cc(Nc2ccc3ccccc3n2)cc(OC)c1OC", "N"],
  ["O=[N+]([O-])c1cc(Nc2ccc3ccccc3n2)ccc1O", "N"],
  ["Brc1ccccc1Nc1ccc2ccccc2n1", "Y"],
  ["Cc1cc(C)cc(Nc2ccc3ccccc3n2)c1", "Y"],
  ["COc1ccc(Nc2ccc3ccccc3n2)cc1", "Y"],
  ["CCOC(=O)c1ccc(Nc2ccc3ccccc3n2)cc1", "N"],
  ["c1ccc(COc2cccc(Nc3ccc4ccccc4n3)c2)cc1", "N"],
  ["Cc1cc(Cl)ccc1Nc1ccc2ccccc2n1", "N"],
  ["O=[N+]([O-])c1cccc(Nc2ccc3ccccc3n2)c1", "N"],
  ["Cc1cccc(C)c1Nc1ccc2ccccc2n1", "Y"],
  ["COc1cc(Nc2ccc3ccccc3n2)cc(OC)c1", "Y"],
  ["Cc1ccc(Nc2ccc3ccccc3n2)cc1", "Y"],
  ["N#Cc1ccc(Nc2ccc3ccccc3n2)cc1", "N"],
  ["Clc1ccc(Nc2ccc3ccccc3n2)cc1", "Y"]
]}
